Some compounds, each annotated with its measured pKi.
# TARGET_OR_TEST_SYSTEM: UniProt Q02127
# Sequence (Q02127 whole entry): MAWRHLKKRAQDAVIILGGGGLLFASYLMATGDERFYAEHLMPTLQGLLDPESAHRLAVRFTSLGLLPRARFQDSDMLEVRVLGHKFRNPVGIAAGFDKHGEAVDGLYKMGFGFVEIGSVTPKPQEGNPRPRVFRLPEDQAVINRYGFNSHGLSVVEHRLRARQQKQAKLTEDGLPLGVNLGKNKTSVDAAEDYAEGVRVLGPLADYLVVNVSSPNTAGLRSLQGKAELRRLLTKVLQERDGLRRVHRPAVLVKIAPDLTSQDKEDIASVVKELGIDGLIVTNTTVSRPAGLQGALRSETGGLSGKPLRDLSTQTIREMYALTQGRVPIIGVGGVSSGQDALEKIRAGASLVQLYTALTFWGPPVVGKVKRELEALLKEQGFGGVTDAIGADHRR
pKi: −log10 of the molar value.
MEASURED_ENDPOINT: pKi

* CSc1ccc2nc(-c3ccc(-c4ccccc4)cc3)c(C)c(C(=O)O)c2c1 | 6.57
* Cc1c(-c2ccc(-c3cccnc3)cc2)nc2ccc(F)cc2c1C(=O)O | 6.70
* Cc1c(-c2ccc(-c3ccccc3F)cc2)nc2ncccc2c1C(=O)O | 6.68
* Cc1c(-c2ccc(C(C)(C)C)cc2)nc2ccc(F)cc2c1C(=O)O | 7.40

---

# TARGET_OR_TEST_SYSTEM: UniProt:Q02127
pKi: −log10 of the molar value.
Threshold rule: pKi greater than or equal to 7 is Y; below that, N.

* Cc1c(-c2cccc3ccccc23)nc2ccc(F)cc2c1C(=O)O | N
* CCCCCCc1ccc(-c2nc3ccc(F)cc3c(C(=O)O)c2C)cc1 | Y
* Cc1c(-c2ccc(Oc3ccccc3)cc2)nc2ccc(F)cc2c1C(=O)O | Y
* Cc1c(-c2ccc(-c3ccccc3F)cc2)nc2cnccc2c1C(=O)O | Y
* Cc1c(-c2ccc3ccccc3c2)nc2ccc(F)cc2c1C(=O)O | N
* Cc1c(-c2ccc(-c3cccs3)cc2)nc2ccc(F)cc2c1C(=O)O | Y
* Cc1c(-c2ccc(-c3cccc(F)c3)cc2)nc2ccc(F)cc2c1C(=O)O | Y
* Cc1c(-c2ccc(C3CCCCC3)cc2)nc2ccc(F)cc2c1C(=O)O | Y
* Cc1c(-c2ccc(-c3ccccc3F)cc2)nc2cccnc2c1C(=O)O | N
* Cn1cnc2c(C(=O)O)cc(-c3ccc(-c4ccccc4)cc3)nc21 | N

Numbers sourced from ChEMBL document CHEMBL1128771.
